Target: histamine H2 -receptors (Rattus norvegicus)
Construct: intravenous or intraduodenal administration in stomach-perfused rats; from tissue; host or cells: stomach of the anesthetized living rat (in vivo)
Test: In vivo antisecretory activity on histamine-induced gastric secretion of acid (stomach-perfused rat)
Settings: iv, histamine 1 mg/kg/hr, values expressed as base, read-out: ED50, inhibition of histamine-induced gastric secretion
Observable: ED50 (mg/kg)

[
  {
    "Molecule": "CCNC=Nc1cccc(-c2nsc(NC(=N)N)n2)c1",
    "Observable": "ED50",
    "Measurement Unit": "mg/kg",
    "Endpoint Result": 0.051
  },
  {
    "Molecule": "CCCNC=Nc1cccc(-c2csc(NC(=N)N)n2)c1",
    "Observable": "ED50",
    "Measurement Unit": "mg/kg",
    "Endpoint Result": 0.019
  },
  {
    "Molecule": "C#CCNC=Nc1cccc(-c2csc(NC(=N)N)n2)c1",
    "Observable": "ED50",
    "Measurement Unit": "mg/kg",
    "Endpoint Result": 0.074
  },
  {
    "Molecule": "CN/C=N/c1cccc(-c2csc(N=C(N)N)n2)c1",
    "Observable": "ED50",
    "Measurement Unit": "mg/kg",
    "Endpoint Result": 0.02
  },
  {
    "Molecule": "N=C(N)Nc1nc(-c2cccc(N=CNCCCO)c2)cs1 [14(s)]",
    "Observable": "ED50",
    "Measurement Unit": "mg/kg",
    "Endpoint Result": 0.028
  },
  {
    "Molecule": "CC(C)NC=Nc1cccc(-c2csc(NC(=N)N)n2)c1",
    "Observable": "ED50",
    "Measurement Unit": "mg/kg",
    "Endpoint Result": 0.035
  }
]

----------
Target: histamine H2 -receptors (Rattus norvegicus, UniProt P25102)
Construct: intravenous or intraduodenal administration in stomach-perfused rats; from tissue; host or cells: stomach of the anesthetized living rat (in vivo)
Sequence (P25102 whole entry, the tested form may be a part): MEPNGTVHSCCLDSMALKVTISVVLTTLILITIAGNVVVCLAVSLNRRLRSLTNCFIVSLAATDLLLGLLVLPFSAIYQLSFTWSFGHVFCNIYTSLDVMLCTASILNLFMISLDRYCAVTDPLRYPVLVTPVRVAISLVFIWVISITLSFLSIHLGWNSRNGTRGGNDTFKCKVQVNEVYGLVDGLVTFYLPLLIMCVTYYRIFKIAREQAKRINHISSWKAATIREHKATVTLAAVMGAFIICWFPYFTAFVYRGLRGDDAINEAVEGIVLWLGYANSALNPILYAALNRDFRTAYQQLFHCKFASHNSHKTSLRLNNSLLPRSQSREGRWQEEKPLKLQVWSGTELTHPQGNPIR
Assay: In vivo antisecretory activity on histamine-induced gastric secretion of acid (stomach-perfused rat)
Settings: iv, histamine 1 mg/kg/hr, values expressed as base, read-out: ED50, inhibition of histamine-induced gastric secretion
Readings of ED50 for the listed compounds

[
  {
    "Compound": "CCNC=Nc1cccc(-c2csc(NC(=N)N)n2)c1 [14(a)]",
    "Tested System": "histamine H2 -receptors (Rattus norvegicus, UniProt P25102)",
    "ED50, mg/kg": 0.013
  },
  {
    "Compound": "CCCCNC=Nc1cccc(-c2csc(N=C(N)N)n2)c1 [14(d)]",
    "Tested System": "histamine H2 -receptors (Rattus norvegicus, UniProt P25102)",
    "ED50, mg/kg": 0.073
  },
  {
    "Compound": "COCCNC=Nc1cccc(-c2csc(NC(=N)N)n2)c1 [14(p)]",
    "Tested System": "histamine H2 -receptors (Rattus norvegicus, UniProt P25102)",
    "ED50, mg/kg": 0.05
  },
  {
    "Compound": "CCC(C)NC=Nc1cccc(-c2csc(NC(=N)N)n2)c1 (stereo not drawn) [14(e)]",
    "Tested System": "histamine H2 -receptors (Rattus norvegicus, UniProt P25102)",
    "ED50, mg/kg": 0.041
  },
  {
    "Compound": "C=CCNC=Nc1cccc(-c2csc(NC(=N)N)n2)c1 [14(j)]",
    "Tested System": "histamine H2 -receptors (Rattus norvegicus, UniProt P25102)",
    "ED50, mg/kg": 0.02
  },
  {
    "Compound": "CC(C)CNC=Nc1cccc(-c2csc(NC(=N)N)n2)c1 [14(f)]",
    "Tested System": "histamine H2 -receptors (Rattus norvegicus, UniProt P25102)",
    "ED50, mg/kg": 0.082
  }
]
